Origin of measurements: paper PMC8252719

List of Ki values.
target: FKBP12 (Homo sapiens, UniProt P62942); assay: competitive fluorescence polarization assay, FKBP12; assay type: binding; conditions: competitive fluorescence polarization assay; >80 μM = highest measurable concentration before compound precipitation; ± = standard error from three independent measurements; read-out: FKBP12 K i
Sequence (P62942 whole entry): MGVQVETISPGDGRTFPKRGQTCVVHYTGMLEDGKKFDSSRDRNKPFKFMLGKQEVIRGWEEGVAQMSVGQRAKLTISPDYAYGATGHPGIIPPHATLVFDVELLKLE

Use the examples below as a reference point.
Ki lookup needed for COc1ccc(CC[C@H]2OC(=O)[C@@H]3CCCCN3C(=O)[C@@H](C3CCCCC3)NC(=O)C(C)(C)N(C)C(=O)COc3cccc2c3)cc1OC , thanks. > 80 µM

If you can, please state the reported Ki value of COc1ccc(CC[C@H]2OC(=O)[C@@H]3CCCCN3C(=O)[C@@H](C3CCCCC3)NC(=O)[C@@H](C)NC(=O)COc3cccc2c3)cc1OC . > 80 µM

Field: next compound
Quick one: Ki for COc1ccc(CC[C@H]2OC(=O)[C@@H]3CCCCN3C(=O)[C@@H](C3CCCCC3)NC(=O)[C@H](C)NC(=O)COc3cccc2c3)cc1OC ? > 80 µM

====

target: FKBP51FK1 (Homo sapiens); test: competitive fluorescence polarization assay, FKBP51FK1; format: binding; conditions: ± = standard error from three independent measurements [b] or error from two independent measurements [d], read-out: FKBP51FK1 K i
Sequence (Q13451 42-130 limits assumed): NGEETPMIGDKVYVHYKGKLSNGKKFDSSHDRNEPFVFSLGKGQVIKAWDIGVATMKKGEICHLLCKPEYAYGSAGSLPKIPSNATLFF
pKi: −log10 of the molar value.
measured metric: pKi

Worked cases, answers included:
Record request: pKi value, item COc1ccc(CCC2OC(=O)C3CCCCN3C(=O)C(C3CCCCC3)CC(O)C(O)COCCOc3cccc2c3)cc1OC (mixture of isomers) 5.92

Fill in the blank: the reported pKi of COc1ccc(CC[C@H]2OC(=O)[C@@H]3CCCCN3C(=O)[C@@H](C3CCCCC3)NC(=O)C3(CCC3)NC(=O)COc3cccc2c3)cc1OC is ____. 6.40

Which measured pKi value corresponds to COc1ccc(CC[C@H]2OC(=O)[C@@H]3CCCCN3C(=O)[C@@H](C3CCCCC3)NC(=O)CCNC(=O)COc3cccc2c3)cc1OC ? 5.13

If you can, please state the reported pKi value of COc1ccc(CC[C@H]2OC(=O)[C@@H]3CCCCN3C(=O)[C@@H](C3CCCCC3)NC(=O)C3(CCCC3)NC(=O)COc3cccc2c3)cc1OC . 5.89

1. COc1ccc(CC[C@H]2OC(=O)[C@@H]3CCCCN3C(=O)[C@@H](C3CCCCC3)NC(=O)CN(C)C(=O)COc3cccc2c3)cc1OC
2. COc1ccc(CC[C@H]2OC(=O)[C@@H]3CCCCN3C(=O)[C@@H](C3CCCCC3)NC(=O)C(C)(C)N(C)C(=O)COc3cccc2c3)cc1OC
Task for the reader: decide whether 1 or 2 has the larger pKi. Provide the label of your selected option as the answer. 2
(2: 6.43, 1: 5.51)

====

molecular target: FKBP12 (Homo sapiens, UniProt P62942); assay: competitive fluorescence polarization assay, FKBP12; format: binding; details: competitive fluorescence polarization assay; >80 μM = highest measurable concentration before compound precipitation; ± = standard error from three independent measurements; read-out: FKBP12 K i
compounds and their reported Ki

Quick check: Ki of COc1ccc(CC[C@H]2OC(=O)[C@@H]3CCCCN3C(=O)[C@@H](C3CCCCC3)NC(=O)CN(C)C(=O)COc3cccc2c3)cc1OC ? > 80 µM

What measured Ki goes with COc1ccc(CC[C@H]2OC(=O)[C@@H]3CCCCN3C(=O)[C@@H](C3CCCCC3)NC(=O)[C@H]3CCCN3C(=O)COc3cccc2c3)cc1OC ? > 80 µM

Could you tell me which Ki is on file for COc1ccc(CC[C@H]2OC(=O)[C@@H]3CCCCN3C(=O)[C@@H](C3CCCCC3)NC(=O)C(C)(C)NC(=O)COc3cccc2c3)cc1OC ? > 80 µM

What does the data say about its Ki? Entry: COc1ccc(CC[C@H]2OC(=O)[C@@H]3CCCCN3C(=O)[C@@H](C3CCCCC3)NC(=O)C3(CCC3)NC(=O)COc3cccc2c3)cc1OC > 80 µM

So what does the record say about Ki for COc1ccc(CC[C@H]2OC(=O)[C@@H]3CCCCN3C(=O)[C@@H](C3CCCCC3)NC(=O)C3(CC3)NC(=O)COc3cccc2c3)cc1OC ? > 80 µM

For the compound shown here, COc1ccc(CC[C@H]2OC(=O)[C@@H]3CCCCN3C(=O)[C@@H](C3CCCCC3)NC(=O)CCNC(=O)COc3cccc2c3)cc1OC , give the reported Ki. > 80 µM
